Recorded values, source ChEMBL document CHEMBL1201862.

Listed here: items and their measured GI50.
System: RPMI-8226
procedure-details: NCI tumour cell line growth inhibition, 48 h
The source made the active and inactive calls. Rule as the data show it: active = GI50 up to about 1.1 µM and inactive = higher.

Solved cases below.
CC(C)/C=C1\CCC(CN2CCOCC2)C1=O (stereo not given)	0.964 µM (active)
CSc1c(C(=O)Nc2ccc(C)cc2)c(N)nn1-c1ccccc1	> 100 µM (inactive)
O=C1CC(CC(O)[C@@H]2CCCC[C@@H]2O)CC(=O)N1c1ccccc1 (stereo not given in full)	> 100 µM (inactive)
O=C1c2ccccc2C(=O)c2c(Nc3cc4c5c(ccc6c7ccc8c9c(cc(Nc%10cccc%11c%10C(=O)c%10ccccc%10C%11=O)c(c3c56)c97)-c3ccccc3C8=O)C(=O)c3ccccc3-4)cccc21	> 100 µM (inactive)
NCCC1CN(C(=O)OCc2ccccc2)c2ccccc21 (stereo not given)	12.8 µM (inactive)

Name the reported GI50 value associated with the compound CCOC(=O)C1=C(O)C2C3CC4C2C(O)=C(C(=O)OCC)C2C1C3C42 (stereo not given)
84.5 µM (inactive)

Name the reported GI50 value associated with the compound COc1ccc(C2Oc3ccc(O)cc3[C@@H]2C)cc1OC (stereo not given in full)
4.05 µM (inactive)

Name the reported GI50 value associated with the compound O=C(Nc1cccc([N+](=O)[O-])c1)c1nnn(-c2cccc([N+](=O)[O-])c2)c1O
> 100 µM (inactive)

Name the reported GI50 value associated with the compound Cn1c(=O)c2ccccc2c2nc3ccccc3nc21
> 100 µM (inactive)

Name the reported GI50 value associated with the compound CC(C)=CC1CC(=[N+]=[N-])C(=O)C1(C)C (stereo not given)
> 51.8 µM (inactive)

Name the reported GI50 value associated with the compound CCOC(=O)/C(Br)=C1/OC(=O)c2ccccc2-c2ccccc21.CCOC(=O)/C(Br)=C1\OC(=O)c2ccccc2-c2ccccc21
8.97 µM (inactive)

Name the reported GI50 value associated with the compound C=C(Br)CN(C#N)CC(=C)Br
> 100 µM (inactive)

* * *

Test system: CCRF-CEM
procedure-details: NCI tumour cell line growth inhibition, 48 h
Activity calls are given as the source filed them. Rule as the data show it: active = GI50 up to about 1.1 µM and inactive = higher.
Listed here: items and their measured GI50.

Solved cases below.
OC(Cc1ccccc1)(Cc1ccccc1)c1ccccc1	20.7 µM (inactive)
COc1ccc(S(=O)(=O)N/N=C/CN2C(=O)c3ccccc3C2=O)cc1OC	> 100 µM (inactive)
COc1ccc(OC)c(C2CCc3nc4nc(N)nc(N)c4cc3C2)c1 (configuration not stated)	2.96 µM (inactive)
Cn1cnc2c1c(=O)n(CCNCCO)c(=O)n2C	> 100 µM (inactive)
CN(CC(=O)O)Cc1oc(CO)cc(=O)c1O	> 100 µM (inactive)
NCCN/C(=N\c1ccccc1)Nc1ccccc1	> 100 µM (inactive)

Name the reported GI50 value associated with the molecule O=C(Nc1ccn(CCOC(=O)c2ccccc2)c(=O)n1)c1ccccc1
> 100 µM (inactive)

Name the reported GI50 value associated with the molecule CCOC(=O)[C@@]12C[C@](/C=C/OC)(O[Si](C)(C)C)[C@@]13c1cc(OC)c(OC)cc1CCN3C(=O)C2=O
> 100 µM (inactive)

Name the reported GI50 value associated with the molecule CCOC(=O)NC(=O)c1cn(CCCCCCOC(=O)NCCCCCCNC(=O)OCCCCCCn2cc(C(=O)NC(=O)OCC)c(=O)[nH]c2=O)c(=O)[nH]c1=O
> 100 µM (inactive)
